The sequences listed here are annotated with their protease stability score.
protocol-description: protease stability score; higher = more stable; yeast display proteolysis, trypsin and chymotrypsin;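 further: relative to predicted unfolded state with 0 unfolded-like and 1 meaning tenfold more protease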
The response must contain the number and no unit.

Observe how each entry below is paired with its result.
1. TEREEDVKTAMDHLYEIIETGDWKEIHKLIDPNAKVHIDGRNLIGRELMTKIIEEMSEKYKNLRLELTHFEVQGNKVISHTNNRFDGREVRTLMILTKIDGRWIIHSINLE 1.11
2. SSHEEYMIRLVLQIIRLYLTGDEETIRKMADPNTYMKITIGDKDIEAHGREDVIRVREEIRKQIRIHHVDVTSIKVIDGRLVIHGILDGEYDGKRDEVDVRIEIIIVNGKWTSEHARVH 1.05

May I ask what protease stability score has been recorded for EEDRNDVEDFLRMFRTALTTGDEHILEHLADPNTRVDINGKEWHGWHHVSELHKKHLEDLGADHVEFRVHDFRIIGNKVHVDSRLIEHQGDKILIINTIIIQLKINGRWVIHELRFR ?
0.988
